# testDetails: Ratio of unbound AUC in brain to plasma in Wistar Hann rat at 5 mg/kg, sc after 4 hrs
# Type: ADME, organism-based
# conditionParameters: brain and plasma, read-out: Ratio AUC
observationType: Kp uu at 4 h

# molecule, obsValue
rows = [
    ("Cn1ccc(-c2ccc(Cn3cc(C(=O)N[C@H]4CCOC[C@@H]4O)c4ncccc43)cc2)n1", 0.16),
]

* * *

# testDetails: Ratio of unbound AUC in brain to plasma in C57BL/6j mouse at 10 mg/kg, sc after 2 hrs
# Assay type: ADME, organism-based
# conditionParameters: read-out: Ratio AUC
observationType: Kp uu at 2 h

# molecule, obsValue
records = [
    ("Cn1ccc(-c2ccc(Cn3cc(C(=O)N[C@H]4CCOC[C@@H]4O)c4ncccc43)cc2)n1", 0.16),
]

* * *

# testDetails: Tmax in Wistar Hann rat brain at 5 mg/kg, sc
# Type: ADME, organism-based
observationType: Tmax (h)

# molecule, obsValue
rows = [
    ("Cn1ccc(-c2ccc(Cn3cc(C(=O)N[C@H]4CCOC[C@@H]4O)c4ncccc43)cc2)n1", 1),
]

* * *

# testDetails: Oral bioavailability in Wistar Hann rat at 2 mg/kg
# Type: ADME, organism-based
# conditionParameters: in vivo

# molecule, bioavailability [%]
records = [
    ("Cn1ccc(-c2ccc(Cn3cc(C(=O)N[C@H]4CCOC[C@@H]4O)c4ncccc43)cc2)n1", 67.9),
]

* * *

# testDetails: Drug concentration in Wistar Hann rat CSF at 5 mg/kg, sc after 6 hrs
# Assay type: ADME, organism-based, Cerebrospinal fluid
# conditionParameters: read-out: Drug uptake

# molecule, concentration at 6 h, nM
measured = [
    ("Cn1ccc(-c2ccc(Cn3cc(C(=O)N[C@H]4CCOC[C@@H]4O)c4ncccc43)cc2)n1", 54.3),
]

* * *

# testDetails: Ratio of unbound AUC in CSF to plasma in Wistar Hann rat at 5 mg/kg, sc after 2 hrs
# Format: ADME, organism-based
# conditionParameters: CSF and plasma, read-out: Ratio AUC

# molecule, Kp uu at 2 h
measured = [
    ("Cn1ccc(-c2ccc(Cn3cc(C(=O)N[C@H]4CCOC[C@@H]4O)c4ncccc43)cc2)n1", 0.29),
]

* * *

# testDetails: Tmax in Wistar Hann rat at 2 mg/kg, po
# Format: ADME, organism-based
# conditionParameters: in vivo
observationType: Tmax (h)

# molecule, obsValue
data = [
    ("Cn1ccc(-c2ccc(Cn3cc(C(=O)N[C@H]4CCOC[C@@H]4O)c4ncccc43)cc2)n1", 1.5),
]

* * *

# testDetails: Intial plasma concentration in Wistar Hann rat at 0.5 mg/kg, iv
# Assay type: ADME, organism-based

# molecule, C0
rows = [
    ("Cn1ccc(-c2ccc(Cn3cc(C(=O)N[C@H]4CCOC[C@@H]4O)c4ncccc43)cc2)n1", "535 ng/mL"),
]

* * *

# testDetails: Cmax in Wistar Hann rat brain at 5 mg/kg, sc
# Format: ADME, organism-based
# Design: dose 5 mg/kg, route subcutaneous
observationType: Cmax (µg/mL)

# molecule, obsValue
data = [
    ("Cn1ccc(-c2ccc(Cn3cc(C(=O)N[C@H]4CCOC[C@@H]4O)c4ncccc43)cc2)n1", 0.453),
]

* * *

# testDetails: AUC (0 to infinity) in Wistar Hann rat CSF at 5 mg/kg, sc
# Assay type: ADME, organism-based, Cerebrospinal fluid
# Set-up: dose 5 mg/kg, time infinity, route subcutaneous
observationType: AUC(0-inf) (ng·h/mL)

# molecule, quantityUnit, obsValue
data = [
    ("Cn1ccc(-c2ccc(Cn3cc(C(=O)N[C@H]4CCOC[C@@H]4O)c4ncccc43)cc2)n1", "ng·h/mL", 380),
]

* * *

# testDetails: Permeability in RRCK cells
# Type: ADME, cell-based, Canis lupus familiaris, MDCKII-LE
# conditionParameters: dog, MDCK; read-out: permeability
Recorded Papp by entry
observationType: Papp

# molecule, obsValue
data = [
    ("Cn1ccc(-c2ccc(Cn3cc(C(=O)N[C@H]4CCOC[C@@H]4O)c4ncccc43)cc2)n1", "31.5 ×10⁻⁶ cm/s"),
    ("O=C(N[C@H]1CCOC[C@@H]1O)c1cn(Cc2ccc(-n3cccn3)cc2)c2cccnc12", "21.7 ×10⁻⁶ cm/s"),
    ("O=C(N[C@H]1CCOC[C@@H]1O)c1cn(Cc2ccc(-c3cc[nH]n3)cc2)c2cccnc12", "14 ×10⁻⁶ cm/s"),
]

* * *

# testDetails: Cmax in Wistar Hann rat CSF at 5 mg/kg, sc
# Type: ADME, organism-based, Cerebrospinal fluid
# Parameters: dose 5 mg/kg, route subcutaneous
observationType: Cmax

# molecule, obsValue
rows = [
    ("Cn1ccc(-c2ccc(Cn3cc(C(=O)N[C@H]4CCOC[C@@H]4O)c4ncccc43)cc2)n1", "62.2 ng/mL"),
]

* * *

# testDetails: Ratio drug level in brain to plasma in C57BL/6j mouse at 10 mg/kg, sc after 0.5 hrs
# Assay type: ADME, organism-based
# conditionParameters: read-out: BPR
observationType: Kp at 0.5 h

# molecule, obsValue
rows = [
    ("Cn1ccc(-c2ccc(Cn3cc(C(=O)N[C@H]4CCOC[C@@H]4O)c4ncccc43)cc2)n1", 0.14),
]

* * *

# testDetails: AUC (0 to infinity) in Wistar Hann rat plasma at 5 mg/kg, sc
# Type: ADME, organism-based
# Parameters: dose 5 mg/kg, time infinity, route subcutaneous
observationType: AUC(0-inf) (ng·h/mL)

# molecule, observationType, quantityUnit, obsValue
data = [
    ("Cn1ccc(-c2ccc(Cn3cc(C(=O)N[C@H]4CCOC[C@@H]4O)c4ncccc43)cc2)n1", "AUC(0-inf)", "ng·h/mL", 13400),
]

* * *

# testDetails: Cmax in Wistar Hann rat plasma at 5 mg/kg, sc
# Format: ADME, organism-based
# Design: dose 5 mg/kg, route subcutaneous

# molecule, Cmax (ng/mL)
data = [
    ("Cn1ccc(-c2ccc(Cn3cc(C(=O)N[C@H]4CCOC[C@@H]4O)c4ncccc43)cc2)n1", 2360),
]

* * *

# testDetails: Ratio of drug level in brain to plasma in Wistar Hann rat at 5 mg/kg, sc after 2 hrs
# Format: ADME, organism-based

# molecule, Kp at 2 h
records = [
    ("Cn1ccc(-c2ccc(Cn3cc(C(=O)N[C@H]4CCOC[C@@H]4O)c4ncccc43)cc2)n1", 0.18),
]

* * *

# testDetails: Ratio of drug level in brain to plasma in Wistar Hann rat at 5 mg/kg, sc after 4 hrs
# Format: ADME, organism-based

# molecule, Kp at 4 h
rows = [
    ("Cn1ccc(-c2ccc(Cn3cc(C(=O)N[C@H]4CCOC[C@@H]4O)c4ncccc43)cc2)n1", 0.22),
]

* * *

# testDetails: Tmax in Wistar Hann rat plasma at 5 mg/kg, sc
# Type: ADME, organism-based

# molecule, quantityUnit, Tmax
measured = [
    ("Cn1ccc(-c2ccc(Cn3cc(C(=O)N[C@H]4CCOC[C@@H]4O)c4ncccc43)cc2)n1", "h", 2),
]

* * *

# testDetails: Ratio drug level in brain to plasma in C57BL/6j mouse at […], sc after 1 hr
# Format: ADME, organism-based
# conditionParameters: read-out: BPR
observationType: Kp at 1 h

# molecule, obsValue
records = [
    ("Cn1ccc(-c2ccc(Cn3cc(C(=O)N[C@H]4CCOC[C@@H]4O)c4ncccc43)cc2)n1", 0.04),
]

* * *

# testDetails: Ratio of unbound AUC in brain to plasma in C57BL/6j mouse at 10 mg/kg, sc after 0.5 hrs
# Format: ADME, organism-based
# conditionParameters: read-out: Ratio AUC

# molecule, Kp uu at 0.5 h
rows = [
    ("Cn1ccc(-c2ccc(Cn3cc(C(=O)N[C@H]4CCOC[C@@H]4O)c4ncccc43)cc2)n1", 0.34),
]

* * *

# testDetails: Tmax in Wistar Hann rat CSF at 5 mg/kg, sc
# Type: ADME, organism-based, Cerebrospinal fluid

# molecule, quantityUnit, Tmax
rows = [
    ("Cn1ccc(-c2ccc(Cn3cc(C(=O)N[C@H]4CCOC[C@@H]4O)c4ncccc43)cc2)n1", "h", 2),
]

* * *

# testDetails: Ratio of drug level in brain to plasma in Wistar Hann rat at 5 mg/kg, sc after 6 hrs
# Assay type: ADME, organism-based
observationType: Kp at 6 h

# molecule, obsValue
measured = [
    ("Cn1ccc(-c2ccc(Cn3cc(C(=O)N[C@H]4CCOC[C@@H]4O)c4ncccc43)cc2)n1", 0.19),
]

* * *

# testDetails: Ratio of unbound AUC in brain to plasma in C57BL/6j mouse at 10 mg/kg, sc after 1 hr
# Format: ADME, organism-based
# conditionParameters: read-out: Ratio AUC
observationType: Kp uu at 1 h

# molecule, obsValue
rows = [
    ("Cn1ccc(-c2ccc(Cn3cc(C(=O)N[C@H]4CCOC[C@@H]4O)c4ncccc43)cc2)n1", 0.18),
]
